# study.system: murine ACC-α (acetyl-Coenzyme-A carboxylase, α form), endogenous protein of murine cell lysates (murine, UniProt Q5SWU9 1-2345)
# measurement.notes: GST co-sedimentation, Western blot with streptavidin-peroxidase

binder	binding result
GST-BRCT L (GST fusion containing residues 1512-1812 of murine Brca1) (other, also called longer form of the murine BRCT domain; pGEX-BRCT L product; not shown: glutathione S-transferase (GST) encoded by pGEX-4T-1) EGTPYLGSGISLFSSRDPESESPKEPAHIGTTPASTSALKIPQGQVAFRSAAAAGADKAVVGIVSKIKPELTSSEERADRDISMVVSGLTPKEVMTVQKFAEKYRLTLTDAITEETTHVIIKTDAEFVCERTLKYFLGIAGGKWIVSYSWVVRSIQERRLLNVHEFEVKGDVVTGRNHQGPRRSRESREKLFKGLQVYCCEPFTNMPKDELERMLQLCGASVVKELPSLTHDTGAHLVVIVQPSAWTEDSNCPDIGQLCKARLVMWDWVLDSLSSYRCRGLDAYLVQNITCDSSEPQDSND	binds

Cited source for all entries: patent US20060105403A1
